Test system: S. simulans
Assay: EDTA salt dilution test, MIC/MBC
Assay type: cell-based
Settings: Exhibit A2
Task for the reader: assign each of the following compounds its reported MIC, minimum concentration required to inhibit growth.

# input Give the reported MIC, minimum concentration required to inhibit growth for this compound. O=C([O-])CN(CCN(CC(=O)[O-])CC(=O)[O-])CC(=O)[O-].[Mg+2].[Na+].[Na+] [Magnesium disodium EDTA]
# output 1500 µg/mL

# input Give reported MIC, minimum concentration required to inhibit growth value for O=C([O-])CN(CCN(CC(=O)[O-])CC(=O)[O-])CC(=O)[O-].[Cu+2].[Na+].[Na+] [Cupric disodium EDTA]
# output <500 µg/mL

# input For N.N.O=C(O)CN(CCN(CC(=O)O)CC(=O)O)CC(=O)O , write its MIC, minimum concentration required to inhibit growth.
# output <500 µg/mL

# input Fill in reported MIC, minimum concentration required to inhibit growth for this entry: O=C([O-])CN(CCN(CC(=O)[O-])CC(=O)[O-])CC(=O)[O-].[Fe+3].[Na+] [Ferric-sodium salt EDTA]
# output >20000 µg/mL

# input // fetch MIC, minimum concentration required to inhibit growth given entry O=C([O-])CN(CCN(CC(=O)[O-])CC(=O)[O-])CC(=O)[O-].[Na+].[Na+].[Na+].[Na+] [Tetrasodium EDTA]
# output 1000 µg/mL

# input Supply MIC, minimum concentration required to inhibit growth value. Item: O=C([O-])CN(CCN(CC(=O)O)CC(=O)O)CC(=O)[O-].[K+].[K+]
# output <500 µg/mL
